test system: Blumeria graminis f. sp. tritici; assay: Test F: preventive spray on wheat seedlings, visual disease rating (wheat powdery mildew); format: in vivo; details: no asterisk: standard test suspension, not 40 ppm
Listed compounds paired with reported Test F rating (% disease control)

Check out these entries, answers already filled in.
Cc1nn(C)c(-c2c(F)cccc2Cl)c1C(=O)c1ccc(Cl)cc1Cl
81%
CCOc1nn(C)c(-c2c(F)cccc2F)c1C(O)c1ccc(F)cc1Cl (stereo not drawn)
99%
Cc1cc(F)ccc1C(O)c1c(C)nn(C)c1-c1c(F)cccc1F (stereo not drawn)
100%
Cc1nn(C)c(-c2ccc(Cl)cc2Cl)c1C(=O)c1ccc(F)cc1F
100%
COc1cc(F)c(C(O)c2c(C)nn(C)c2-c2c(F)cccc2Cl)c(F)c1 (stereo not drawn)
99%
COc1nn(C)c(-c2c(F)cccc2Cl)c1C(O)c1ccc(F)cc1Cl (stereo not drawn)
100%

Field: next compound
Task: State measured Test F rating (% disease control) of the compound Cc1nn(C)c(-c2ccc(F)cc2Cl)c1Nc1ccc(Cl)cc1F with Blumeria graminis f. sp. tritici.
Result: 99%
